Below is a list of entries, each paired with its recorded fraction unbound at 24 h, 500 pmol/mL value.
Test system: serum proteins
Assay: protein binding to serum proteins (Sephadex G-50 size-exclusion chromatography)
Type: in vitro ADME
Conditions: fresh human serum, 37° C., 24 h, read-out: Percentage of radioligand bound to serum proteins after 24 h incubation (converted)
Procedure: Additionally, protein binding to serum proteins was investigated. For this purpose the ^111In-labelled peptidomimetics were incubated in duplicates in fresh human serum at 37° C. (500 pmol/mL) and analyzed after 4 and 24 h by Sephadex G-50 size-exclusion chromatography (GE Healthcare Illustra, Little Chalfont, UK). […]
Where a SMILES comes first, the peptide text is derived from it. [ ]: non-standard residue; d: D form. The star is where a group is joined. DOTA = O=C(O)CN1CCN(CC(=O)O)CCN(CC(=O)*)CCN(CC(=O)O)CC1; 1Nal = N[C@@H](Cc1cccc2ccccc12)C(=O)O; NMeNle = CCCC[C@H](NC)C(=O)O
// keep it numeric: no unit symbol after the value

Study these solved cases before continuing.
compound="CCCC[C@@H](C(=O)N[C@@H](CC(=O)O)C(=O)N[C@@H](Cc1cccc2ccccc12)C(N)=O)N(C)C(=O)[C@H](Cc1c[nH]c2ccccc12)NC(=O)[C@@H]1CCCN1C(=O)[C@H](Cc1ccc(O)cc1)NC(=O)[C@H](C)NC(=O)[C@@H](CCC(=O)O)NC(=O)CN1CCN(CC(=O)O)CCN(CC(=O)O)CCN(CC(=O)O)CC1 [^111In-DOTA-MGS12, metal not drawn] ({DOTA}-[dE]AYPW[NMeNle]D[1Nal]-NH2)" measured_endpoint="fraction unbound at 24 h, 500 pmol/mL" measured_value=0.541
compound="CSCC[C@H](NC(=O)[C@H](Cc1c[nH]c2ccccc12)NC(=O)CNC(=O)[C@H](Cc1ccc(O)cc1)NC(=O)[C@H](C)NC(=O)[C@@H](CCC(=O)O)NC(=O)CN1CCN(CC(=O)O)CCN(CC(=O)O)CCN(CC(=O)O)CC1)C(=O)N[C@@H](CC(=O)O)C(=O)N[C@@H](Cc1cccc2ccccc12)C(N)=O [^111In-DOTA-MGS1, metal not drawn, reference compound] ({DOTA}-[dE]AYGWMD[1Nal]-NH2)" measured_endpoint="fraction unbound at 24 h, 500 pmol/mL" measured_value=0.712

Okay, next one:
fraction unbound at 24 h, 500 pmol/mL reported for this compound CCCC[C@@H](C(=O)N[C@@H](CC(=O)O)C(=O)N[C@@H](Cc1ccc2ccccc2c1)C(N)=O)N(C)C(=O)[C@H](Cc1c[nH]c2ccccc12)NC(=O)CNC(=O)[C@H](Cc1ccc(O)cc1)NC(=O)[C@H](C)NC(=O)[C@@H](CCC(=O)O)NC(=O)CN1CCN(CC(=O)O)CCN(CC(=O)O)CCN(CC(=O)O)CC1 [^111In-DOTA-MGS5-2, metal not drawn] : 0.654

* * *

Target: human CCK2R (Homo sapiens)
Construct: expressed in transfected cells; host or cells: A431 human epidermoid carcinoma cells (A431-CCK2R), plasmid pCR3.1, provided by Dr. Luigi Aloj
Sequence (P32239 whole entry): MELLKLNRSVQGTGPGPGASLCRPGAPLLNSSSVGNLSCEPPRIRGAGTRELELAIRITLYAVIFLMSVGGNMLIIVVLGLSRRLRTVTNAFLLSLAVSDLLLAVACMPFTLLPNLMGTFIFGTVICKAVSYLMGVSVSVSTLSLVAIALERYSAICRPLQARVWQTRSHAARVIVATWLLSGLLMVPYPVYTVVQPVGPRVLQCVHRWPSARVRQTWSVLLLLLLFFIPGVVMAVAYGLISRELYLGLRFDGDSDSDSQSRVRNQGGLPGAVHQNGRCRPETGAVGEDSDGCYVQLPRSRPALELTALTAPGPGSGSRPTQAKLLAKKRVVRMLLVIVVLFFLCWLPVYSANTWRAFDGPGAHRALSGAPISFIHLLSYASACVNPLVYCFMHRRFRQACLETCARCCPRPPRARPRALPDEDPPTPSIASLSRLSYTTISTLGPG
Experiment: CCK2R competition binding assay against [125I]Tyr12-gastrin-I on A431-CCK2R cells
Settings: displacement of [125I]Tyr12-gastrin-I, A431-CCK2R cells, 1 h at RT; read-out: IC50
Where a SMILES comes first, the peptide text is derived from it. [ ]: non-standard residue; d: D form. The star is where a group is joined. DOTA = O=C(O)CN1CCN(CC(=O)O)CCN(CC(=O)*)CCN(CC(=O)O)CC1; 1Nal = N[C@@H](Cc1cccc2ccccc12)C(=O)O; NMeNle = CCCC[C@H](NC)C(=O)O
measured endpoint: pIC50
In plain terms, pIC50 is the concentration in mol/L turned into minus its base-10 logarithm.

pIC50 reported for this molecule CCCC[C@@H](C(=O)N[C@@H](CC(=O)O)C(=O)N[C@@H](Cc1ccc2ccccc2c1)C(N)=O)N(C)C(=O)[C@H](Cc1c[nH]c2ccccc12)NC(=O)CNC(=O)[C@H](Cc1ccc(O)cc1)NC(=O)[C@H](C)NC(=O)[C@@H](CCC(=O)O)NC(=O)CN1CCN(CC(=O)O)CCN(CC(=O)O)CCN(CC(=O)O)CC1 [DOTA-MGS5-2] : 8.80

pIC50 reported for this molecule CCCC[C@@H](C(=O)N[C@@H](CC(=O)O)C(=O)N[C@@H](Cc1cccc2ccccc12)C(N)=O)N(C)C(=O)[C@H](Cc1c[nH]c2ccccc12)NC(=O)CNC(=O)[C@@H]1CCCN1C(=O)[C@H](Cc1ccc(O)cc1)NC(=O)[C@@H](CCC(=O)O)NC(=O)CN1CCN(CC(=O)O)CCN(CC(=O)O)CCN(CC(=O)O)CC1 [DOTA-MGS10] ({DOTA}-[dE]YPGW[NMeNle]D[1Nal]-NH2) : 9.05
